Molecular target: Nuclear factor NF-kappa-B complex (Homo sapiens) (UniProt Q00653+P19838+Q04206)
Sequence (P19838 whole entry, looked up): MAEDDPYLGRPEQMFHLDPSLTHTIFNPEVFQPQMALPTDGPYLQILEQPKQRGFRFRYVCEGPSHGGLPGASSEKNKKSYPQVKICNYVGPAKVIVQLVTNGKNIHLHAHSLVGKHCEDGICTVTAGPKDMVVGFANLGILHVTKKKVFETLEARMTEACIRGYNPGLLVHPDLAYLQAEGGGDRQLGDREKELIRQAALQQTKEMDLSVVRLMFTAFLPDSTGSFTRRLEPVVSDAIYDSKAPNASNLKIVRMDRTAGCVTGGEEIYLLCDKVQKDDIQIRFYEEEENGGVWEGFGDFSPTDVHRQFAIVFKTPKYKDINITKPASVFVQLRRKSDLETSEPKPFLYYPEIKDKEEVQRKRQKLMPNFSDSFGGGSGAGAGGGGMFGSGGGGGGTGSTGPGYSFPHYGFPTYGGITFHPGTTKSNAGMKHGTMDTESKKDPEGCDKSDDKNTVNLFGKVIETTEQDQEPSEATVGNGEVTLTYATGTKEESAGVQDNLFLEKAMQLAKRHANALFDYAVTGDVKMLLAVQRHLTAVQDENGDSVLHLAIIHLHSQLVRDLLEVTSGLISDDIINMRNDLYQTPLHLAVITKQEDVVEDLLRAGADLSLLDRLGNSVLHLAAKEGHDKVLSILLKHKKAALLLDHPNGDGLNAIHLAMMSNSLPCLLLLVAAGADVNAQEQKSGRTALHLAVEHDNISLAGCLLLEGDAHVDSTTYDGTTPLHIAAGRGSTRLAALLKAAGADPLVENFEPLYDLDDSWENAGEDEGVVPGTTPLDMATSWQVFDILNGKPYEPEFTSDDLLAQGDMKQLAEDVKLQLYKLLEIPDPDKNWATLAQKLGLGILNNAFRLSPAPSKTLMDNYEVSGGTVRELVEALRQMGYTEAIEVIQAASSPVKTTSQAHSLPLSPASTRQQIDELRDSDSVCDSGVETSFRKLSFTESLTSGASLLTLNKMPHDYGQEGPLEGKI
Sequence (Q00653 whole entry, looked up): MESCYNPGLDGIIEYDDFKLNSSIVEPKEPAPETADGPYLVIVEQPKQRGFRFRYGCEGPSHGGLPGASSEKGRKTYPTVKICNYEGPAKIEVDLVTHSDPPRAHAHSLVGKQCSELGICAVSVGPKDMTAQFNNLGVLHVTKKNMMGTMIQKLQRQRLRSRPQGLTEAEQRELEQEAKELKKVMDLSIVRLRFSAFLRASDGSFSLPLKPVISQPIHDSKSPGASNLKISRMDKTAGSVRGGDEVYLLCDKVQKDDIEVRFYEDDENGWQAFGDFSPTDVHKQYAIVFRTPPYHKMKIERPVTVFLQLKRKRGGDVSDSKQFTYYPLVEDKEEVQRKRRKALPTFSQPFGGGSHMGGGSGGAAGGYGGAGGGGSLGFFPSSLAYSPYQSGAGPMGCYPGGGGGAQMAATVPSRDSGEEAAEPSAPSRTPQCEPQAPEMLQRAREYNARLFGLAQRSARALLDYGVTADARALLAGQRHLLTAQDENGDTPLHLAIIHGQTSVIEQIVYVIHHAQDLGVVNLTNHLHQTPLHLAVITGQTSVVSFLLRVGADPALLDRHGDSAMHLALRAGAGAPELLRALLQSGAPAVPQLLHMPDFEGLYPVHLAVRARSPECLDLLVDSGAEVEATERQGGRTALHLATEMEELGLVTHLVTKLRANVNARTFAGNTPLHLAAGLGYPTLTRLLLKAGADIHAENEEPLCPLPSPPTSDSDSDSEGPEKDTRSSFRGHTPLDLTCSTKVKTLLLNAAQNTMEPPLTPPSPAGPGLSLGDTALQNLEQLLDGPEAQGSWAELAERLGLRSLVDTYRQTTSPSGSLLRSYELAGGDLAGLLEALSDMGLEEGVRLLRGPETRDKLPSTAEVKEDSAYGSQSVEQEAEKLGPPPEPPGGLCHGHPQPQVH
Sequence (Q04206 whole entry, looked up): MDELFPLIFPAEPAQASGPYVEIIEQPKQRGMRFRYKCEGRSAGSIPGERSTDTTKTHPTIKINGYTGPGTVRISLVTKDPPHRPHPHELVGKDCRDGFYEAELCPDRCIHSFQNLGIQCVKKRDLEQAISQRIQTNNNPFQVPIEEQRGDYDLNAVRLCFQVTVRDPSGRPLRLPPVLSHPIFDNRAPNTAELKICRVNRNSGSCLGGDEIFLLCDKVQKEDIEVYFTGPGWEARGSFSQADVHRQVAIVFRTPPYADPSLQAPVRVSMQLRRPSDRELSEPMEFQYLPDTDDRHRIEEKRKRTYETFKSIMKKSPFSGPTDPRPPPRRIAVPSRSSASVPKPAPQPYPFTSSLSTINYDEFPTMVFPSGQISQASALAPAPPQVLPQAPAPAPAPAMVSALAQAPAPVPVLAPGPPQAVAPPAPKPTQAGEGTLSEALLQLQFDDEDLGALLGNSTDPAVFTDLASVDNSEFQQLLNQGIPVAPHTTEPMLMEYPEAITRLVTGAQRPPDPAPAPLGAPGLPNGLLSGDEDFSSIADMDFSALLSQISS
Experiment: Activation of NF-kappaB in human THP1-Blue NF-kappaB cells co-expressing NFkappaB-inducible SEAP assessed as increase in SEAP activity at 5 uM measured after 20 hrs by quanti-blue based colorimetric assay relative to control
Assay type: cell-based
Conditions: filed as activator
Reported Activity values are given for each entry in this list.
Numbers only; they are read as %.

CCOC1CCN(S(=O)(=O)c2ccc(C(=O)Nc3nc(-c4cc(C)ccc4C)cs3)cc2)CC1	201
Cc1ccc(C)c(-c2csc(NC(=O)c3ccc(S(=O)(=O)N4CCCCC4)cc3Cl)n2)c1	127
Cc1ccc(-c2csc(NC(=O)c3ccc(S(=O)(=O)N4CCCCC4)cc3)n2)c(C)c1	98

Please report Activity with Nuclear factor NF-kappa-B complex (Homo sapiens) (UniProt Q00653+P19838+Q04206) for item `Cc1ccc(C)c(-c2csc(NC(=O)c3ccc(S(=O)(=O)N4CCCCC4)c([N+](=O)[O-])c3)n2)c1` . 115

* * *

Reported Activity values are given for each entry in this list.
Test system: THP-1
Assay: Cytotoxicity against human THP-1 cells assessed as cell viability at 5 uM measured after 18 hrs by MTT assay relative to control
Format: cell-based
Conditions: thp-1, 18 h
Numbers only; they are read as %.

Guide cases for Activity, answers given:
Cc1ccc(C)c(-c2csc(NC(=O)c3ccc(S(=O)(=O)N4CCCCC4)cc3Br)n2)c1	96
Cc1ccc(C)c(-c2csc(NC(=O)c3ccc(S(=O)(=O)N4CCCCC4)c(N)c3)n2)c1	92
Cc1csc(NC(=O)c2ccc(S(=O)(=O)N3CCCCC3)cc2)n1	108

Let me know recorded Activity for `Cc1ccc(C)c(-c2csc(NC(=O)c3ccc(S(=O)(=O)N4CCCCC4)nc3)n2)c1` , thanks. 89

* * *

Molecular target: Nuclear factor NF-kappa-B complex (Homo sapiens) (UniProt Q00653+P19838+Q04206)
Experiment: Activation of NF-kappaB in human THP1-Blue NF-kappaB cells co-expressing NFkappaB-inducible SEAP assessed as increase in SEAP activity at 5 uM measured after 20 hrs by quanti-blue based colorimetric assay relative to control
Assay type: cell-based
Conditions: filed as activator
Reported Activity values are given for each entry in this list.
Numbers only; they are read as %.

Cc1ccc(C)c(-c2csc(NC(=O)c3ccc(S(=O)(=O)N4CCNCC4)cc3)n2)c1	101
Cc1ccc(Br)c(-c2csc(NC(=O)c3ccc(S(=O)(=O)N4CCCCC4)cc3)n2)c1	254
Cc1ccc(C)c(-c2nc(NC(=O)c3ccc(S(=O)(=O)N4CCCCC4)cc3)sc2-c2ccccc2)c1	99
CCSc1sc(NC(=O)c2ccc(S(=O)(=O)N3CCCCC3)cc2)nc1-c1cc(C)ccc1C	103

Let me know recorded Activity for `O=C(Nc1nc(-c2cccc3ccccc23)cs1)c1ccc(S(=O)(=O)N2CCCCC2)cc1` , thanks. 198

* * *

Test system: THP-1
Assay: Cytotoxicity against human THP-1 cells assessed as cell viability at 5 uM measured after 18 hrs by MTT assay relative to control
Format: cell-based
Settings: thp-1, 18 h
quantity: Activity (%)
Numbers only; they are read as %.

Guide cases for Activity, answers given:
Cc1ccc(C)c(-c2ccc(NC(=O)c3ccc(S(=O)(=O)N4CCCCC4)cc3)cn2)c1	93
Cc1ccc(C)c(-c2csc(NC(=O)c3ccc(S(=O)(=O)N4CCCCC4)c([N+](=O)[O-])c3)n2)c1	93
CC(C)(C)Cc1csc(NC(=O)c2ccc(S(=O)(=O)N3CCCCC3)cc2)n1	116
C#Cc1sc(NC(=O)c2ccc(S(=O)(=O)N3CCCCC3)cc2)nc1-c1cc(C)ccc1C	111
CCc1csc(NC(=O)c2ccc(S(=O)(=O)N3CCCCC3)cc2)n1	120

Next compound, Activity to be filled in.
Let me know recorded Activity for `CCCCc1sc(NC(=O)c2ccc(S(=O)(=O)N3CCCCC3)cc2)nc1-c1cc(C)ccc1C` , thanks. 129

* * *

Biological target: Nuclear factor NF-kappa-B complex (Homo sapiens) (UniProt Q00653+P19838+Q04206)
Experiment: Activation of NF-kappaB in human THP1-Blue NF-kappaB cells co-expressing NFkappaB-inducible SEAP assessed as increase in SEAP activity at 5 uM measured after 20 hrs by quanti-blue based colorimetric assay relative to control
Format: cell-based
Conditions: filed as activator
Reported Activity values are given for each entry in this list.
Numbers only; they are read as %.

Guide cases for Activity, answers given:
C#Cc1sc(NC(=O)c2ccc(S(=O)(=O)N3CCCCC3)cc2)nc1-c1cc(C)ccc1C	118
Cc1ccc(C)c(-c2csc(NC(=O)c3ccc(S(=O)(=O)N4CCCCC4)c(Br)c3)n2)c1	209
CCN(c1ccccc1)S(=O)(=O)c1ccc(C(=O)Nc2nc(-c3cc(C)ccc3C)cs2)cc1	105
CC(=O)N1CCN(S(=O)(=O)c2ccc(C(=O)Nc3nc(-c4cc(C)ccc4C)cs3)cc2)CC1	101
Cc1cc(C)cc(-c2csc(NC(=O)c3ccc(S(=O)(=O)N4CCCCC4)cc3)n2)c1	97
Cc1ccc(C)c(-c2csc(NC(=O)c3ccc(S(=O)(=O)N4CCCCC4)s3)n2)c1	103
Cc1ccc2c(c1)-c1nc(NC(=O)c3ccc(S(=O)(=O)N4CCCCC4)cc3)sc1C2	109
C#Cc1ccc(C)c(-c2csc(NC(=O)c3ccc(S(=O)(=O)N4CCCCC4)cc3)n2)c1	101

Let me know recorded Activity for `CCCC#Cc1sc(NC(=O)c2ccc(S(=O)(=O)N3CCC(CCC)CC3)cc2)nc1-c1cc(C)ccc1C` , thanks. 112

Let me know recorded Activity for `Cc1ccc(C)c(-c2csc(NC(=O)c3ccc(S(=O)(=O)N4CCN(C(=O)OC(C)(C)C)CC4)cc3)n2)c1` , thanks. 101

Let me know recorded Activity for `COc1cc(S(=O)(=O)N2CCCCC2)ccc1C(=O)Nc1nc(-c2cc(C)ccc2C)cs1` , thanks. 99

* * *

Tested on: THP-1
Test: Cytotoxicity against human THP-1 cells assessed as cell viability at 5 uM measured after 18 hrs by MTT assay relative to control
Format: cell-based
Details: thp-1, 18 h
quantity: Activity (%)
Numbers only; they are read as %.

Cc1ccc(C)c(-c2csc(N(C)C(=O)c3ccc(S(=O)(=O)N4CCCCC4)cc3)n2)c1	97
Cc1ccc2c(c1)-c1nc(NC(=O)c3ccc(S(=O)(=O)N4CCCCC4)cc3)sc1C2	89
CCC#Cc1sc(NC(=O)c2ccc(S(=O)(=O)N3CCCCC3)cc2)nc1-c1cc(C)ccc1C	103

Let me know recorded Activity for `O=C(Nc1nc(-c2cccc3ccccc23)cs1)c1ccc(S(=O)(=O)N2CCCCC2)cc1` , thanks. 93

Let me know recorded Activity for `Cc1ccc(C)c(-c2nnc(NC(=O)c3ccc(S(=O)(=O)N4CCCCC4)cc3)s2)c1` , thanks. 90

Let me know recorded Activity for `Cc1cccc(C)c1-c1csc(NC(=O)c2ccc(S(=O)(=O)N3CCCCC3)cc2)n1` , thanks. 100

Let me know recorded Activity for `Cc1ccc(C)c(-c2csc(NC(=O)c3cccc(C(=O)N4CCCCC4)c3)n2)c1` , thanks. 88

* * *

Molecular target: Nuclear factor NF-kappa-B complex (Homo sapiens) (UniProt Q00653+P19838+Q04206)
Test: Activation of NF-kappaB in human THP1-Blue NF-kappaB cells co-expressing NFkappaB-inducible SEAP assessed as increase in SEAP activity at 5 uM measured after 20 hrs by quanti-blue based colorimetric assay relative to control
Type: cell-based
Settings: filed as activator
quantity: Activity (%)
Numbers only; they are read as %.

Guide cases for Activity, answers given:
Cc1ccc(C)c(-c2c[nH]c(NC(=O)c3ccc(S(=O)(=O)N4CCCCC4)cc3)n2)c1	99
CCCN(CC)S(=O)(=O)c1ccc(C(=O)Nc2nc(-c3cc(C)ccc3C)cs2)cc1	183

Let me know recorded Activity for `Cc1ccc(C)c(-c2csc(NC(=O)c3ccc(S(=O)(=O)N4CCCCC4)c(N)c3)n2)c1` , thanks. 125

Let me know recorded Activity for `Cc1cccc(C)c1-c1csc(NC(=O)c2ccc(S(=O)(=O)N3CCCCC3)cc2)n1` , thanks. 185

Let me know recorded Activity for `Cc1ccc(C)c(-c2nc(NC(=O)c3ccc(S(=O)(=O)N4CCCCC4)cc3)sc2C)c1` , thanks. 159

* * *

Tested on: THP-1
Experiment: Cytotoxicity against human THP-1 cells assessed as cell viability at 5 uM measured after 18 hrs by MTT assay relative to control
Type: cell-based
Conditions: thp-1, 18 h
Reported Activity values are given for each entry in this list.
State the result as a value with its unit after it.

Please report Activity with THP-1 for item `CCc1ccc(C)c(-c2csc(NC(=O)c3ccc(S(=O)(=O)N4CCCCC4)cc3)n2)c1` . 102%

Please report Activity with THP-1 for item `CCCC#Cc1sc(NC(=O)c2ccc(S(=O)(=O)N3CCC(CCC)CC3)cc2)nc1-c1cc(C)ccc1Br` . 97%

Please report Activity with THP-1 for item `CCCCCc1sc(NC(=O)c2ccc(S(=O)(=O)N3CCCCC3)cc2)nc1-c1cc(C)ccc1C` . 108%

Please report Activity with THP-1 for item `Cc1ccc(C)c(-c2csc(NC(=O)c3ccc(S(=O)(=O)NC4CCCCC4)cc3)n2)c1` . 91%

Please report Activity with THP-1 for item `Cc1ccc(C)c(-c2nc(NC(=O)c3ccc(S(=O)(=O)N4CCCCC4)cc3)sc2C)c1` . 97%

Please report Activity with THP-1 for item `Cc1ccc(C)c(-c2nc(NC(=O)c3ccc(S(=O)(=O)N4CCCCC4)cc3)sc2N2CCCCC2)c1` . 89%

Please report Activity with THP-1 for item `Cc1ccc(C)c(-c2csc(C(=O)Nc3ccc(S(=O)(=O)N4CCCCC4)cc3)n2)c1` . 91%

Please report Activity with THP-1 for item `Cc1ccc(Br)cc1-c1csc(NC(=O)c2ccc(S(=O)(=O)N3CCCCC3)cc2)n1` . 91%

Please report Activity with THP-1 for item `CCN(CC)c1sc(NC(=O)c2ccc(S(=O)(=O)N3CCCCC3)cc2)nc1-c1cc(C)ccc1C` . 94%

Please report Activity with THP-1 for item `CCCN1CCN(S(=O)(=O)c2ccc(C(=O)Nc3nc(-c4cc(C)ccc4C)cs3)cc2)CC1` . 80%

Please report Activity with THP-1 for item `CCCN(CC)S(=O)(=O)c1ccc(C(=O)Nc2nc(-c3cc(C)ccc3C)cs2)cc1` . 104%

Please report Activity with THP-1 for item `Cc1ccc(C)c(-c2csc(NCc3ccc(S(=O)(=O)N4CCCCC4)cc3)n2)c1` . 85%

Please report Activity with THP-1 for item `CCCC#Cc1sc(NC(=O)c2ccc(S(=O)(=O)N3CCCCC3)cc2)nc1-c1cc(C)ccc1Br` . 95%

Please report Activity with THP-1 for item `CCCN(CCC)S(=O)(=O)c1ccc(C(=O)Nc2nc(-c3cc(C)ccc3C)cs2)cc1` . 96%

Please report Activity with THP-1 for item `Cc1cccc(-c2csc(NC(=O)c3ccc(S(=O)(=O)N4CCCCC4)cc3)n2)c1C` . 103%

The origin of these recorded values is ChEMBL document CHEMBL4808214.
